molecular target: MERTK (UniProt Q12866); assay: phosphorylation enrichment, bacterial display (enrichment ratio); higher = better substrate or ligand; peptides without Tyr show the background;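 also: 11-residue human phosphosite peptides and single-mutation variants displayed on the E. coli surface, counted by deep sequencing, each peptide's frequency after selection divided by its frequency in the unselected input library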;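 also: frequency after pTyr selection over input frequency; kinase dosed for 20-30% of maximal phosphorylation in three min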
Sequence (Q12866 whole entry, looked up): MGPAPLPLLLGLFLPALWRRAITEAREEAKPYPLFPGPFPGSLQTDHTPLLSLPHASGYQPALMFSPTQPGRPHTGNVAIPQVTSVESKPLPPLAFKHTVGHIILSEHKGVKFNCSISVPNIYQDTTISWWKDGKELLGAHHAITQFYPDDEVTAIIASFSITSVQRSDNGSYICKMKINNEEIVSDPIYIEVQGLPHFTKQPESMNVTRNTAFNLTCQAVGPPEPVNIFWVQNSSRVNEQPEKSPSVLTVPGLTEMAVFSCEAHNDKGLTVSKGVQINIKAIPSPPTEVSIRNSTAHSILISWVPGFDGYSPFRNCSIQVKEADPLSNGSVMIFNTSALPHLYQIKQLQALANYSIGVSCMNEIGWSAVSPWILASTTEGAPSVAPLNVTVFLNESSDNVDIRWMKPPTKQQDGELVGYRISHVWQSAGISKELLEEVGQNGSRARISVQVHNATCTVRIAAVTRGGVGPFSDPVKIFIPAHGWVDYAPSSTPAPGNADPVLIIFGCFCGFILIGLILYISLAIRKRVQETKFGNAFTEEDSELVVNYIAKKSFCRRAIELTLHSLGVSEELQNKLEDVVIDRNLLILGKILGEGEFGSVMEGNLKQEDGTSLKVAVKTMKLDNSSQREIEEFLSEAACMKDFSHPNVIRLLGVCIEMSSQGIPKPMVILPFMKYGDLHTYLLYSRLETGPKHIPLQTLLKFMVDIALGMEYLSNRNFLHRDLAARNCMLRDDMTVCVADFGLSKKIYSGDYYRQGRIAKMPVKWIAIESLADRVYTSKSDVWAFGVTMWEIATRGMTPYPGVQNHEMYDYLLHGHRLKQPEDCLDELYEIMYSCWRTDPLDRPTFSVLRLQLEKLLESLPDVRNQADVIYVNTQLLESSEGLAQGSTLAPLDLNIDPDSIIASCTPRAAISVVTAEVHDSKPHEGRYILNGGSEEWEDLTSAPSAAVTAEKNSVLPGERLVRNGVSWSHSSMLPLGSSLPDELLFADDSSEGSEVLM
metric-name: phosphorylation enrichment

[
  {
    "residues": "KVKEQYQDVPM [PKP2_Y659]",
    "metric-name": "phosphorylation enrichment",
    "test-result": 0.401
  },
  {
    "residues": "IKNSGYISQYL [EIF2AK3_Y585_R588Q]",
    "metric-name": "phosphorylation enrichment",
    "test-result": 0.374
  },
  {
    "residues": "ILGRTYYVNHE [NEDD4_Y627]",
    "metric-name": "phosphorylation enrichment",
    "test-result": 0.368
  },
  {
    "residues": "CCKNRYDKDKP [THAP1_Y14_G9C]",
    "metric-name": "phosphorylation enrichment",
    "test-result": 0.486
  },
  {
    "residues": "ADEEYYEIIAA [FEStide_no-pY_2014]",
    "metric-name": "phosphorylation enrichment",
    "test-result": 1.53
  },
  {
    "residues": "HNVAIYEGYAL [ACTC1_Y168_P166A]",
    "metric-name": "phosphorylation enrichment",
    "test-result": 6.65
  },
  {
    "residues": "SQETFYRVSNM [ABCD1_Y181_Q178E_YF]",
    "metric-name": "phosphorylation enrichment",
    "test-result": 0.448
  },
  {
    "residues": "FGHTFYNQAIM [MCCC2_Y196_R193H]",
    "metric-name": "phosphorylation enrichment",
    "test-result": 0.445
  },
  {
    "residues": "QYNIQYSSSAA [ERBB2IP_Y981]",
    "metric-name": "phosphorylation enrichment",
    "test-result": 0.452
  },
  {
    "residues": "CTTIHYNCMCN [TP53_Y234_Y236C]",
    "metric-name": "phosphorylation enrichment",
    "test-result": 0.426
  },
  {
    "residues": "VPVNGYQPVPA [ROR2_Y824]",
    "metric-name": "phosphorylation enrichment",
    "test-result": 0.382
  },
  {
    "residues": "GDYYRYLAEVA [YWHAG_Y133]",
    "metric-name": "phosphorylation enrichment",
    "test-result": 2.63
  },
  {
    "residues": "FEHVGYTTLNR [CHN1_Y148_YF]",
    "metric-name": "phosphorylation enrichment",
    "test-result": 0.406
  },
  {
    "residues": "RGDSAYHSQRH [ERBB3_Y1132]",
    "metric-name": "phosphorylation enrichment",
    "test-result": 0.357
  },
  {
    "residues": "KVALPYKPFFF [POLE_Y100_YF]",
    "metric-name": "phosphorylation enrichment",
    "test-result": 0.41
  },
  {
    "residues": "GRRNTCFASIA [ACADM_Y352_Y352C_YF]",
    "metric-name": "phosphorylation enrichment",
    "test-result": 0.413
  },
  {
    "residues": "SLALFYRNVYH [RBL1_Y792_K794N]",
    "metric-name": "phosphorylation enrichment",
    "test-result": 0.382
  },
  {
    "residues": "FEEDSYSHVMA [FDPS_Y388_I391V_YF]",
    "metric-name": "phosphorylation enrichment",
    "test-result": 0.631
  }
]
